Values compiled from patent US20250195536A1.

target: KRAS G12D (Homo sapiens, UniProt P01116, G12D); assay: GDP-GTP exchange assay (KRAS G12D); type: biochemical; conditions: bodipy-GDP/GppNHp exchange with SOS1; 4 h pre-incubation, 2 h reaction;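 also: one dagger IC50 up to 100 nM and two daggers above 100 nM up to 1 μM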
Sequence (P01116 1-188 isoform P01116-2 G12D): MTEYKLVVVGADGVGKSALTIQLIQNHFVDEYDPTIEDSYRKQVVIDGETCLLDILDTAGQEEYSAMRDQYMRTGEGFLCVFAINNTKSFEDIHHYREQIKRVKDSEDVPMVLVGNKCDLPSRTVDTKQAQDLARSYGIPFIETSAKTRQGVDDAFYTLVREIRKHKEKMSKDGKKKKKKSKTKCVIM
measured metric: G12D_exchange (KRAS_G12D exchange assay IC50)

compound	reported result
Cc1nc2c(F)c(-c3cccc(Cl)c3Cl)c(CCC#N)cc2c2c1cc([C@H]1[C@H]3C[C@H](CN(c4ccn(C)c(=O)c4)C3)N1C(=O)C1CC1)n2[C@H]1[C@H]2CN[C@@H]1C2 (atropisomer, axis not shown; (Ra))	†
Cc1nc2c(F)c(-c3cccc(Cl)c3Cl)c(CCC#N)cc2c2c1cc([C@H]1[C@H]3C[C@H](CN(c4ccc(C(F)(F)F)cc4)C3)N1C(=O)C1CC1)n2[C@H]1[C@H]2CN[C@@H]1C2 (atropisomer, axis not shown; (Ra))	††
COCCOc1cc(N2C[C@@H]3C[C@H](C2)N(C(=O)C2CC2)[C@H]3c2cc3c(C)nc4c(F)c(-c5cccc(Cl)c5Cl)c(CCC#N)cc4c3n2[C@H]2[C@H]3CN[C@@H]2C3)ccn1 (atropisomer, axis not shown; (Ra))	†
